test system: T. brucei; test: Growth inhibition assay of T. brucei cell cultures (Alamar Blue, 48 h); format: cell-based; conditions: Trypanosoma brucei; read-out: B) T. brucei EC50
Give measured pEC50 for each item. Keep answers brief.
Remember, pEC50 is on a log scale: it is -log10 of the molar concentration.

Given CC(Cc1nc2ccc(Cl)cc2[nH]1)NCc1cc(Cl)cc(Cl)c1 (centres unmarked) , respond with its pEC50.
5.88

Given C[C@@H](CNCc1cc(Cl)cc(Cl)c1)CNc1nc2cccnc2[nH]1 , respond with its pEC50.
7.95

Given Clc1cc(Cl)cc(NCC2CCCN(c3nc4nc(Cl)ccc4[nH]3)C2)c1 (centres unmarked) , respond with its pEC50.
6.46

Given NN(C(=O)/C=C/Oc1ccc(Cl)cc1Cl)c1nc2ccccc2[nH]1 , respond with its pEC50.
5.45

Given O=C(/C=C/Oc1ccc(Cl)cc1Cl)NCc1nc2ccc(F)nc2[nH]1 , respond with its pEC50.
7.15

* * *

Give measured pIC50 for each item. Keep answers brief.
target: MetRS (T. brucei) (Trypanosoma brucei brucei, UniProt Q38C91)
Sequence (Q38C91 entry or part of it): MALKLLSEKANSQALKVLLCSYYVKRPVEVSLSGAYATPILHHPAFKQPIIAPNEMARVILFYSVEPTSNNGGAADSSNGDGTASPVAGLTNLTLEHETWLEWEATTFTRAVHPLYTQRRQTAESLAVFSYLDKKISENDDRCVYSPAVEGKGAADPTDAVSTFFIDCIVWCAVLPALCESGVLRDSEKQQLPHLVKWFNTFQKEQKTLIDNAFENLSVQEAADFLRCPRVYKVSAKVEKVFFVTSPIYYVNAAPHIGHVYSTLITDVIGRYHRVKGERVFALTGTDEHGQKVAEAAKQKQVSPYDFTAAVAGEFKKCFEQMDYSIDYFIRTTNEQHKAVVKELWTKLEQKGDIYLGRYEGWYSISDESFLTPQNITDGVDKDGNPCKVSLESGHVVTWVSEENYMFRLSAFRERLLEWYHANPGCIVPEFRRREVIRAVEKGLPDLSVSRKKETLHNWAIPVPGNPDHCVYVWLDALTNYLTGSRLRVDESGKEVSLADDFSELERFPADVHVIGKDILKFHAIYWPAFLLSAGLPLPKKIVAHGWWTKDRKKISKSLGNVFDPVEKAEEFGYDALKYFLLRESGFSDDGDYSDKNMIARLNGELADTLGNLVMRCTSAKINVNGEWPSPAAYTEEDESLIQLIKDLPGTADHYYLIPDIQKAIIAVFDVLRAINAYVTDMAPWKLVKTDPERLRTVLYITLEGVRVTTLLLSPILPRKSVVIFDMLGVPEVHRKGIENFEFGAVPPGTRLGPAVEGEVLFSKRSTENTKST
Remember, pIC50 is on a log scale: it is -log10 of the molar concentration.

Given O=C(Cc1ccc(Cl)cc1Cl)NCc1nc2ccc(Cl)cc2[nH]1 [Compound 1852] , respond with its pIC50.
7.12

Given O=C(COc1ccc(Cl)cc1Cl)NCc1nc2ccccc2[nH]1 [Compound 1671] , respond with its pIC50.
5.90

Given O=C(Cc1cc(Cl)cc(Cl)c1)N1CCCC(c2nc3nc(F)ccc3[nH]2)C1 (stereo not shown) [Compound 1761] , respond with its pIC50.
7.27

Given Clc1cc(Cl)cc(NCCNCc2nc3ccc(Cl)nc3[nH]2)c1 [Compound 1994] , respond with its pIC50.
7.23

Given O=C(CNc1nc2ccc(Cl)nc2[nH]1)NCc1cc(Cl)cc(Cl)c1 [Compound 1970] , respond with its pIC50.
7.16

Given Clc1cc(Cl)c(OCC2CC2)c(CN[C@H]2CCCN(c3nc4nc(Cl)ccc4[nH]3)C2)c1 [Compound 1929] , respond with its pIC50.
7.54

Given CN(CCN(Cc1cc(Cl)cc(Cl)c1)C(N)=O)c1nc2ccc(Cl)nc2[nH]1 [Compound 1972] , respond with its pIC50.
7.57

Given O=C(Cc1cc(Cl)cc(Cl)c1)NC1CCCC(c2nc3nc(Cl)ccc3[nH]2)C1 (stereo not shown) [Compound 1786] , respond with its pIC50.
6.51

Given Clc1cc(Cl)cc(CNC2CN(c3nc4nc(Cl)ccc4[nH]3)C2)c1 [Compound 1864] , respond with its pIC50.
5.66

Given O=C(Cc1cc(Cl)cc(Cl)c1)N1CCOC(c2nc3nc(Cl)ccc3[nH]2)C1 (stereo not shown) [Compound 1790] , respond with its pIC50.
6.98

Given CCC(=O)NC(CC(=O)NCc1cc(Cl)cc(Cl)c1)c1nc2ccc(Cl)nc2[nH]1 (stereo not shown) [Compound 1968] , respond with its pIC50.
5.73

Given O=C(Cc1cc(Cl)cc(Cl)c1)NCc1nc2ccc(Cl)nc2[nH]1 [Compound 1875] , respond with its pIC50.
7.42

Given O=C(NCc1nc2ccccc2[nH]1)OCCc1ccc(Cl)cc1Cl [Compound 1701] , respond with its pIC50.
8.30

Given FC(F)(CNCc1cc(Cl)cc(Cl)c1)CNc1nc2cccnc2[nH]1 [Compound 1708] , respond with its pIC50.
7.96

Given O=C1N[C@@H](Cc2ccc(Cl)cc2Cl)C(O)N1Cc1nc2ccccc2[nH]1 (stereo partly shown) [Compound 1934] , respond with its pIC50.
6.93

Given OC(CNCc1cc(Cl)cc(Cl)c1)CNc1nc2cccnc2[nH]1 (stereo not shown) [Compound 1634] , respond with its pIC50.
6.88

Given O=C(Cc1cc(Cl)cc(Cl)c1)N1CCCC(c2nc3ccccc3[nH]2)C1 (stereo not shown) [Compound 1732] , respond with its pIC50.
6.54

Given O=C(Cc1nc2ccc(Cl)cc2[nH]1)NCc1cc(Cl)cc(Cl)c1 [Compound 1804] , respond with its pIC50.
6.41

Given NN(C(=O)/C=C/Oc1ccc(Cl)cc1Cl)c1nc2ccccc2[nH]1 [Compound 1766] , respond with its pIC50.
6.53

Given O=C(Cc1cc(Cl)cc(Cl)c1)N1CCCC(c2nc3cc(F)ccc3[nH]2)C1 (stereo not shown) [Compound 1744] , respond with its pIC50.
6.74

Given CN(CCN(Cc1cc(Cl)cc(Cl)c1)C(=O)CCN)c1nc2nc(Cl)ccc2[nH]1 [Compound 1958] , respond with its pIC50.
7.89

Given N[C@@H](COc1ccc(Cl)cc1Cl)C(=O)NCc1nc2ccccc2[nH]1 [Compound 1807] , respond with its pIC50.
5.81

Given Clc1cc(Cl)cc(CNC2CCN(c3nc4nc(Cl)ccc4[nH]3)CC2)c1 [Compound 1867] , respond with its pIC50.
5.30

Given O=C(CCc1nc2nc(Cl)ccc2[nH]1)NCc1cc(Cl)cc(Cl)c1 [Compound 1944] , respond with its pIC50.
6.27

Given N[C@H](CC(=O)NCc1nc2ccccc2[nH]1)Cc1ccc(Cl)cc1Cl [Compound 1726] , respond with its pIC50.
5.62

Given Clc1cc(Cl)cc(CNCCNc2nc3ccc(Cl)nc3[nH]2)c1 [Compound 1849] , respond with its pIC50.
7.48

Given O=c1[nH]c(Cc2ccc(Cl)cc2Cl)cn1Cc1nc2ccccc2[nH]1 [Compound 1907] , respond with its pIC50.
7.72

Given CC(Cc1nc2ccccc2[nH]1)NCc1cc(Cl)cc(Cl)c1 (stereo not shown) [Compound 1819] , respond with its pIC50.
5.14

Given O=C(NCc1nc2ccc(F)cc2[nH]1)OCCc1ccc(Cl)cc1Cl [Compound 1741] , respond with its pIC50.
6.88

Given CCOc1c(Br)cc(Br)cc1CN[C@H]1CCCN(c2nc3nc(Cl)ccc3[nH]2)C1 [Compound 1910] , respond with its pIC50.
7.72

* * *

Give measured L) E. faecium (ATCC 51559) MIC/EC50, MIC for each item. Keep answers brief.
test system: E. faecium (ATCC 51559); assay: E. faecium (ATCC 51559) MIC/EC50; format: cell-based

Please tell me the measured L) E. faecium (ATCC 51559) MIC/EC50, MIC for Fc1ccc2nc(NCCCN[C@@H]3CCNc4c(Cl)cc(Cl)cc43)[nH]c2n1 ; system: E. faecium (ATCC 51559).
>0.04 µg/mL

Please tell me the measured L) E. faecium (ATCC 51559) MIC/EC50, MIC for Fc1ccc2nc(NCCCN[C@H]3CCOc4c(Cl)cc(Cl)cc43)[nH]c2n1 ; system: E. faecium (ATCC 51559).
>10 µg/mL

Please tell me the measured L) E. faecium (ATCC 51559) MIC/EC50, MIC for Clc1cc(Cl)cc(Cn2cc(Cc3nc4ccccc4[nH]3)nn2)c1 ; system: E. faecium (ATCC 51559).
>10 µg/mL

Please tell me the measured L) E. faecium (ATCC 51559) MIC/EC50, MIC for Fc1ccc2nc(NCCCNCc3cc(Cl)cc(Cl)c3)[nH]c2n1 ; system: E. faecium (ATCC 51559).
1.25 µg/mL

Please tell me the measured L) E. faecium (ATCC 51559) MIC/EC50, MIC for Clc1cc(Cl)cc(CNCCCNc2nc3ncccc3[nH]2)c1 ; system: E. faecium (ATCC 51559).
0.625 µg/mL

Please tell me the measured L) E. faecium (ATCC 51559) MIC/EC50, MIC for O=C(/C=C/Oc1ccc(Cl)cc1Cl)NCc1nc2ccccc2[nH]1 ; system: E. faecium (ATCC 51559).
>10 µg/mL

Please tell me the measured L) E. faecium (ATCC 51559) MIC/EC50, MIC for Fc1ccc2nc(NCCCN[C@@H]3CCOc4c(Cl)cc(Cl)cc43)[nH]c2n1 ; system: E. faecium (ATCC 51559).
>0.04 µg/mL

* * *

readout-type: IC50 (nM)
Supply the numeric figure in nM, leaving out any unit text.

Please tell me the measured IC50 for CC[C@@H](Cc1nc2ccc(Cl)cc2[nH]1)NCc1cc(Cl)cc(Cl)c1 [Compound 1827] ; system: UniProt:Q38C91.
390

Please tell me the measured IC50 for O=C(CCNc1ccc(Cl)cc1Cl)NCc1nc2ccccc2[nH]1 [Compound 1763] ; system: UniProt:Q38C91.
168

Please tell me the measured IC50 for OC1NC(Cc2ccc(Cl)cc2Cl)=CN1Cc1nc2ccccc2[nH]1 (centres unmarked) [Compound 1936] ; system: UniProt:Q38C91.
65

Please tell me the measured IC50 for O=C(NCc1nc2cccnc2[nH]1)OCc1ccccc1 [Compound 1699] ; system: UniProt:Q38C91.
13100

Please tell me the measured IC50 for CC(=O)N(Cc1cc(Cl)cc(Cl)c1)C1CCCC(c2nc3ncccc3[nH]2)C1 (centres unmarked) [Compound 1818] ; system: UniProt:Q38C91.
7950

Please tell me the measured IC50 for Fc1ccc2nc(NCCCN[C@@H]3CCNc4c(Cl)cc(Cl)cc43)[nH]c2n1 [Compound 1717] ; system: UniProt:Q38C91.
28

Please tell me the measured IC50 for COc1ccc(Oc2cc(NCc3nc4ccccc4[nH]3)ccn2)c(Cl)c1 [Compound 1950] ; system: UniProt:Q38C91.
50

Please tell me the measured IC50 for Clc1cc(Cl)cc(NCCCNc2nc3ccc(Cl)nc3[nH]2)c1 [Compound 1967] ; system: UniProt:Q38C91.
88

Please tell me the measured IC50 for O=C(CCOc1ccc(Cl)cc1Cl)NCc1nc2ccc(F)nc2[nH]1 [Compound 1705] ; system: UniProt:Q38C91.
100

Please tell me the measured IC50 for Clc1cc(Cl)cc(CN2CCCC(Cc3nc4nc(Cl)ccc4[nH]3)C2)c1 (centres unmarked) [Compound 1814] ; system: UniProt:Q38C91.
3400

Please tell me the measured IC50 for Clc1ccc(CN2CCC[C@H](c3nc4nc(Cl)ccc4[nH]3)C2)c(Cl)c1 [Compound 1869] ; system: UniProt:Q38C91.
52

Please tell me the measured IC50 for CC(=O)N(Cc1cc(Cl)cc(Cl)c1)[C@H]1CCCN(c2nc3nc(F)ccc3[nH]2)C1 [Compound 1901] ; system: UniProt:Q38C91.
692

Please tell me the measured IC50 for CCOc1c(Br)cc(Cl)cc1CN[C@H]1CCCN(c2nc3nc(Cl)ccc3[nH]2)C1 [Compound 1937] ; system: UniProt:Q38C91.
19

Please tell me the measured IC50 for Clc1cc(Cl)c(Cl)c(CN[C@H]2CCCN(c3nc4nc(Cl)c(Br)cc4[nH]3)C2)c1 [Compound 1905] ; system: UniProt:Q38C91.
4310

Please tell me the measured IC50 for CC(Cc1nc2cc(Cl)c(Cl)cc2[nH]1)NCc1cc(Cl)cc(Cl)c1 (centres unmarked) [Compound 1822] ; system: UniProt:Q38C91.
1490
